Origin of the recorded values: ChEMBL document CHEMBL1156931

TARGET_SYSTEM: Proto-oncogene tyrosine-protein kinase Src (Homo sapiens)
Sequence (P12931 2-536 limits assumed): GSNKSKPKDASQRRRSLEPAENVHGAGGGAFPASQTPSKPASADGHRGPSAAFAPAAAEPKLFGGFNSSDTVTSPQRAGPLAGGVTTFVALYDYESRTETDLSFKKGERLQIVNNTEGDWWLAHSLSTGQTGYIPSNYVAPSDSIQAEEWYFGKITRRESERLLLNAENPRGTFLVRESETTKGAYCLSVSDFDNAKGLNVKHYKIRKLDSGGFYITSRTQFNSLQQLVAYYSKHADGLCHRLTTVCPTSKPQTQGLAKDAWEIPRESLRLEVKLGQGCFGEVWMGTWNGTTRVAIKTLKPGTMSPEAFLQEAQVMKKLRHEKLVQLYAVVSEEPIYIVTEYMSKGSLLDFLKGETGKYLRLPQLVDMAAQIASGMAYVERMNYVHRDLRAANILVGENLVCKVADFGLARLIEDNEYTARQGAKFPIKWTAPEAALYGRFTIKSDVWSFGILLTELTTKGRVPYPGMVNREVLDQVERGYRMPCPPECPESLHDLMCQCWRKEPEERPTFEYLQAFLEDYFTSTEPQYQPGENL
MEASURED_PARAMETER: pIC50
Answer as the number alone; pIC50 is minus log10 of concentration in mol/L.

Considering COc1cc(/C=C2\SC(=N)NC2=O)ccc1OCCCOc1cc(C)cc(C)c1 , its pIC50 with Proto-oncogene tyrosine-protein kinase Src (Homo sapiens) was recorded as 5.00

###

TARGET_SYSTEM: UniProt P11362
Sequence (P11362 whole entry): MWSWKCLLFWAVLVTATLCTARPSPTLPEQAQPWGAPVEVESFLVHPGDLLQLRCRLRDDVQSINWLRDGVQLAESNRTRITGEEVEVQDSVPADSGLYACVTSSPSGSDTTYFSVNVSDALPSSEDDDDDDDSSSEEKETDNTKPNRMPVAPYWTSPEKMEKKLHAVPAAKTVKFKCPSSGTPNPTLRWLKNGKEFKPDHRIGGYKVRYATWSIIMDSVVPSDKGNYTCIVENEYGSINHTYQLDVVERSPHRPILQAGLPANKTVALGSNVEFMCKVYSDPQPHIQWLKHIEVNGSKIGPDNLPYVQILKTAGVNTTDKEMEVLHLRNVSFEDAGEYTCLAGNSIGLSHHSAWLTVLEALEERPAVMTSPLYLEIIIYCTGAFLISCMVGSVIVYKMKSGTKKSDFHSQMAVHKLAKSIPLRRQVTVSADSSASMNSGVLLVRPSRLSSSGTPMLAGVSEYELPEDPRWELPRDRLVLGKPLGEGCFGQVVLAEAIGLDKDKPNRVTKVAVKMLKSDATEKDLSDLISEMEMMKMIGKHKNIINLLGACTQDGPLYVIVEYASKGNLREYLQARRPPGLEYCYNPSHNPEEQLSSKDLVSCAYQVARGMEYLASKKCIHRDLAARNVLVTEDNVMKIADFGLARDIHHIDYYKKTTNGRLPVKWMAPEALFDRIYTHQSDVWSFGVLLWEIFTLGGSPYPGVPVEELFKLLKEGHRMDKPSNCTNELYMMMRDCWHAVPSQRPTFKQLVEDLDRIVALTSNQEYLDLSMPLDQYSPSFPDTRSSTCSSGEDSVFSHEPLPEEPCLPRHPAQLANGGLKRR
EXPERIMENTAL_DETAILS: Inhibition of FGFR1
CONDITION_SUMMARY: read-out: IC50
Could you please report measured IC50 for the items listed next?
Reply with the number, then its unit.

Lab note: COc1cc(/C=C2\SC(=N)NC2=O)ccc1OCCCOc1cc(C)cc(C)c1 gave IC50 of 23 µM

Lab note: COCc1cc(/C=C2\NC(=S)NC2=O)ccc1OCCCOc1cc(C)cc(C)c1 gave IC50 of 3300 µM

Lab note: COc1cc(-c2nc3sc4c(c3c(=O)[nH]2)CCC(C)C4)ccc1OCC(=O)O (stereo unspecified) gave IC50 of 50 µM

Lab note: COc1cc(-c2nc3sc4cc(C)ccc4c3c(=O)[nH]2)ccc1OCC(=O)O gave IC50 of 4 µM

Lab note: CCOc1cc(/C=C2\NC(=S)NC2=O)ccc1OCCCOc1cc(C)cc(C)c1 gave IC50 of 250 µM

Lab note: CCc1ccc2c(c1)sc1[nH]c(-c3ccc(OCC(=O)O)c(OC)c3)nc(=O)c12 gave IC50 of 5.5 µM

###

TARGET_SYSTEM: UniProt:P00533
Sequence (P00533 whole entry): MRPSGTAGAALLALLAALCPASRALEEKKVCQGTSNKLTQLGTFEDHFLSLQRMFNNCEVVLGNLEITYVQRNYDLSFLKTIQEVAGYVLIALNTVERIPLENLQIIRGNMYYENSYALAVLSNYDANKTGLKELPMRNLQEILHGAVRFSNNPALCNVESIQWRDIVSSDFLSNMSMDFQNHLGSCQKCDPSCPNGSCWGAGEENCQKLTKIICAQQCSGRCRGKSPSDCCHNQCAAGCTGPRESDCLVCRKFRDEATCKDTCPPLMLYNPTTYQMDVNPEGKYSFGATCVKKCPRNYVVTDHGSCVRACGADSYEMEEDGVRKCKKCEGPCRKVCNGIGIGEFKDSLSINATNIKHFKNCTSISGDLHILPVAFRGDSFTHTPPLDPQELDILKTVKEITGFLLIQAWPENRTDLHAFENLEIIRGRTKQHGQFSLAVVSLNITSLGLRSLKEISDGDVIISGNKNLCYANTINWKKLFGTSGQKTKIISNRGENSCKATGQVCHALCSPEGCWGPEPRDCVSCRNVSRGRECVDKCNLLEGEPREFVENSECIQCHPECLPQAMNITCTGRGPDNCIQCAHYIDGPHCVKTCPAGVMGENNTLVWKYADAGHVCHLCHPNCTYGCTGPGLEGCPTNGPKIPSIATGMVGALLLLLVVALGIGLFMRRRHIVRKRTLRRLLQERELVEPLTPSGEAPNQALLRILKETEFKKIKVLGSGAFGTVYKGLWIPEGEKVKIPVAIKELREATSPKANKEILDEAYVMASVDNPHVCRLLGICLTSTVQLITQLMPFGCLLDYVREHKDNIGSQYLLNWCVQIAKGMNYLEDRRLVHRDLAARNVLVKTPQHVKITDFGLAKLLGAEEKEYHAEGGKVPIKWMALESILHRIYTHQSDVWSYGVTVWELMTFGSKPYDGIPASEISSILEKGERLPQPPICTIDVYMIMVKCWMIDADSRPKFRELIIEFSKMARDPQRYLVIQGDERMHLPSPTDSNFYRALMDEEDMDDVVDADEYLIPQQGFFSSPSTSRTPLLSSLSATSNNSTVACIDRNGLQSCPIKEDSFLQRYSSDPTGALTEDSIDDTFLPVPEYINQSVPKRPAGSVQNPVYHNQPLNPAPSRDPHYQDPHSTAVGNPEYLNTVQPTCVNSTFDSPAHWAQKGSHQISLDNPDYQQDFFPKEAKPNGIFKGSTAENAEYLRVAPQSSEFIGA
EXPERIMENTAL_DETAILS: Inhibition of EGFR
MEASURED_PARAMETER: pIC50
Answer as the number alone; pIC50 is minus log10 of concentration in mol/L.

Considering COc1cc(-c2nc(=O)c3c([nH]2)sc2ccc(C)cc23)ccc1OCC(=O)O , its pIC50 with UniProt:P00533 was recorded as 5.62

###

MEASURED_PARAMETER: IC50 (µM)
# value in µM; strip the unit string

Considering COc1cc(/C=C2\SC(=N)NC2=O)ccc1OCCCOc1cc(C)cc(C)c1 , its IC50 with Insulin receptor (Homo sapiens) was recorded as 47
